# systemName: Neutrophil collagenase (Homo sapiens)
# Sequence (P22894 whole entry, the tested form may be a part): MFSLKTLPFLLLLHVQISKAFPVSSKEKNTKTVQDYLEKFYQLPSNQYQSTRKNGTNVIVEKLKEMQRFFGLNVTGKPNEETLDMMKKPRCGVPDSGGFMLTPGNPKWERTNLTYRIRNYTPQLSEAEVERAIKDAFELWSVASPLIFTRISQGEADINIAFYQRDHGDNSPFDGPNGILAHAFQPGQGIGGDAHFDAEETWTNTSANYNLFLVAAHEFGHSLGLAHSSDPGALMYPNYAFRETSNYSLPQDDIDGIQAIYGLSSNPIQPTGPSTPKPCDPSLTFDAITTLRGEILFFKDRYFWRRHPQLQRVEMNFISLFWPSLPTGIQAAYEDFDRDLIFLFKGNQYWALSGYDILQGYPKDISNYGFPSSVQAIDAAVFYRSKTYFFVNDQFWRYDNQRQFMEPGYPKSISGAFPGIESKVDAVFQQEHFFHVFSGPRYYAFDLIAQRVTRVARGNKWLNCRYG
# assayNotes: Inhibition of human recombinant MMP-8 catalytic domain (99 to 269 residues) expressed in Escherichia coli using fluorogenic Mca-KPLGL-Dpa-AR-NH2 as substrate by fluorescence spectrophotometric analysis
pKi: −log10 of the molar value.
Satisfied means recorded pKi is 8 or above; Not satisfied means it is below 8.

querySmiles: O=C1COc2ccc(CNC(=O)c3nc4scc(C5CCCCC5)c4c(=O)[nH]3)cc2N1
categoryLabel: Not satisfied

input: Check this compound for pKi at or above 8: "O=C1COc2ccc(CNC(=O)c3nc4sc(C5CCCCC5)cc4c(=O)[nH]3)cc2N1"
output: Satisfied

input: Quick check, pKi >= 8? "O=C1COc2ccc(CNC(=O)c3nc4sc5c(c4c(=O)[nH]3)CCCCCC5)cc2N1"
output: Satisfied

input: Test whether the compound "O=C1COc2ccc(CNC(=O)c3nc4scc(CCc5ccccc5)c4c(=O)[nH]3)cc2N1" records pKi of 8 or higher.
output: Not satisfied

input: API: above_or_equal(metric=pKi, cutoff=8) for item "O=C1COc2ccc(CNC(=O)c3nc4scc(-c5ccc(C(F)(F)F)cc5)c4c(=O)[nH]3)cc2N1"
output: Not satisfied
